The reported numbers originate from patent US20260226068A1.

# Lookup of reported IC50 keyed by entry
# target entity: IL-17A/A (Homo sapiens, UniProt Q16552)
# Construct: purchased Genscript Z03228
# experiment: IL-17A/A HEK-Blue cell assay (SEAP reporter)
# Assay type: cell-based
# setup conditions: HEK-Blue IL-17A reporter cells, IL17A/A 5 ng/mL, 20 hours, SEAP read at A630; read-out: HEK-Blue IL17AA (IC50 for IL-17A/A inhibition)

compound	IC50
CCn1nccc1C(=O)N[C@H](c1cn2nc(C[C@H]3C[C@@H](C(F)(F)F)CNC3=O)c(C3(OC)CCOCC3)nc2n1)C1CCC(F)(F)CC1	< 100 nM

Req: Item CCn1nccc1C(=O)N[C@H](c1cn2nc(C[C@H]3C[C@@H](C(F)(F)F)CNC3=O)cnc2n1)[C@H]1CC[C@H](C)CC1 with IL-17A/A (Homo sapiens, UniProt Q16552) - IC50?
Resp: < 100 nM

Req: Item CCn1nccc1C(=O)N[C@H](c1cn2nc(C[C@H]3C[C@@H](C(F)(F)F)CNC3=O)c(C3CCCC(F)(F)C3)nc2n1)C1CCC(F)(F)CC1 (single isomer, unassigned) with IL-17A/A (Homo sapiens, UniProt Q16552) - IC50?
Resp: < 100 nM

* * *

# target entity: IL-17A/A (Homo sapiens, UniProt Q16552)
# Sequence (Q16552 24-155): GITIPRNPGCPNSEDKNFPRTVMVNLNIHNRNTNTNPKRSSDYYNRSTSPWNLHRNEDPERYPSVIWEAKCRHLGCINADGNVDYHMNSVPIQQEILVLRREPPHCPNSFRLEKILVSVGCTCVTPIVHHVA
# experiment: IL-17A/A HEK-Blue cell assay (SEAP reporter)
# setup conditions: HEK-Blue IL-17A reporter cells, IL17A/A 5 ng/mL, 20 hours, SEAP read at A630; read-out: HEK-Blue IL17AA (IC50 for IL-17A/A inhibition)
measured attribute: IC50

> print(dat)
                                   compound  measured.attribute  reported.result
1  CCn1nccc1C(=O)N[C@H](c1cn2nc(C[C@H]3C[C@@H](C(F)(F)F)CNC3=O)c(N3CCC(C)(O)CC3)nc2n1)C1CCC(F)(F)CC1 [Compound 194]                IC50         < 100 nM
2  CCn1nccc1C(=O)N[C@H](c1cn2nc(C[C@H]3C[C@@H](C(F)(F)F)CNC3=O)c(N3CCN(C4COC4)CC3)nc2n1)C1CCC(F)(F)CC1 [Compound 433]                IC50         < 100 nM
3  CCc1nonc1C(=O)N[C@H](c1cn2nc(C[C@H]3C[C@@H](C(F)(F)F)CNC3=O)c(C3CCOCC3)nc2n1)[C@H]1C[C@H]2C[C@H]2C1 [Compound 317]                IC50   100 to 1000 nM

Req: Item CCn1nccc1C(=O)N[C@H](c1cn2nc(C[C@H]3C[C@@H](C(F)(F)F)CNC3=O)c(C(C)(C)C3CCOCC3)nc2n1)C1CCC(F)(F)CC1 [Compound 169] with IL-17A/A (Homo sapiens, UniProt Q16552) - IC50?
Resp: < 100 nM

Req: Item CCn1nccc1C(=O)N[C@H](c1cn2nc(C[C@H]3C[C@@H](C(F)(F)F)CNC3=O)c(N3CCN(C)[C@H](C)C3)nc2n1)C1CCC(F)(F)CC1 [Compound 298] with IL-17A/A (Homo sapiens, UniProt Q16552) - IC50?
Resp: < 100 nM

Req: Item CCn1nccc1C(=O)N[C@H](c1cn2nc(C[C@H]3C[C@@H](C(F)(F)F)CNC3=O)c(CN3CCOC(C)(C)C3)nc2n1)C1CCC(F)(F)CC1 [Compound 351] with IL-17A/A (Homo sapiens, UniProt Q16552) - IC50?
Resp: < 100 nM
